These measurements were taken from patent US20120237518A1.

koff values for the binders below.
Target entity: T1, recombinant human Trop-2/Fc/His fusion protein (manufactured by R&D) (human, UniProt P09758 27-274, limits assumed)
T1 construct: Bought reagent; also called Trop-2/Fc/His chimeric protein; recombinant Trop-2
T1 sequence: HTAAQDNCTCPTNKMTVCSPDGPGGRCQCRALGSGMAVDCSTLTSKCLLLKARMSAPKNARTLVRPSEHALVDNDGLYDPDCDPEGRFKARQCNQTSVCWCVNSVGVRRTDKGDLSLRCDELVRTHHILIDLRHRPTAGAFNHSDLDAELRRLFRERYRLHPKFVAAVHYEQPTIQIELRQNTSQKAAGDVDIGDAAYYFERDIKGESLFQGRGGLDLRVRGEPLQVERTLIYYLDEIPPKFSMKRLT
Protocol description: SPR (Biacore T100), Trop-2/Fc/His captured by Tetra-His antibody, antibody as analyte, Bivalent Analyte model, mean of duplicates
// note: answer is a bare numeric in s⁻¹

>  <Binder>
KM4097 humanized antibody HV0LV0 (antibody, V domains shown, Expressed from pKANTEX93 (human constant regions) in FUT8 knockout CHO cells; no fucose attached) VH: QVQLVQSGAEVKKPGASVKVSCKASGYTFTIYWLGWVRQAPGQGLEWMGNIFPGSAYINYNEKFKGRVTITADTSTSTAYMELSSLRSEDTAVYYCAREGSNSGYWGQGTLVTVSS VL: DIVMTQSPDSLAVSLGERATINCKSSQSLLNSGNQQNYLAWYQQKPGQPPKLLIYGASTRESGVPDRFSGSGSGTDFTLTISSLQAEDVAVYYCQSDHIYPYTFGQGTKLEIK

>  <koff (s⁻¹)>
0.00016

$$$$

Dear colleague, I am looking for the recorded koff of the following binder: KM4097 humanized antibody HV4LV0 (antibody, V domains shown, Expressed from pKANTEX93 (human constant regions) in FUT8 knockout CHO cells; no fucose attached) VH: QVQLVQSGPEVKKPGASVKVSCKASGYTFTIYWLGWVKQAPGQGLEWIGNIFPGSAYINYNEKFKGRVTITADTSTSTAYMELSSLRSEDTAVYFCAREGSNSGYWGQGTLVTVSS VL: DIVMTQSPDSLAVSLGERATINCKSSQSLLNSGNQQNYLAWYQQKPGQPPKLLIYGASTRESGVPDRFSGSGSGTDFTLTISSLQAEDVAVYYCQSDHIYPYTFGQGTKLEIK
0.000126

Dear colleague, I am looking for the recorded koff of the following binder: KM4097 humanized antibody HV10LV2 (antibody, V domains shown, Expressed from pKANTEX93 (human constant regions) in FUT8 knockout CHO cells; no fucose attached) VH: QVQLVQSGPEVVKPGASVKISCKASGYTFTIYWLGWVKQAPGQGLEWIGNIFPGSAYINYNEKFKGKATLTADTSTSTAYMELSSLRSEDTAVYFCAREGSNSGYWGQGTLLTVSS VL: DIVMTQSPDSLAVSLGERVTINCKSSQSLLNSGNQQNYLAWYQQKPGQPPKLLIYGASTRESGVPDRFSGSGSGTDFTLTISSVQAEDVAVYYCQSDHIYPYTFGQGTKLEIK
0.000148

Dear colleague, I am looking for the recorded koff of the following binder: KM4097 humanized antibody HV3aLV0 (antibody, V domains shown, Expressed from pKANTEX93 (human constant regions) in FUT8 knockout CHO cells; no fucose attached) VH: QVQLVQSGPEVKKPGASVKVSCKASGYTFTIYWLGWVRQAPGQGLEWMGNIFPGSAYINYNEKFKGKVTITADTSTSTAYMELSSLRSEDTAVYFCAREGSNSGYWGQGTLVTVSS VL: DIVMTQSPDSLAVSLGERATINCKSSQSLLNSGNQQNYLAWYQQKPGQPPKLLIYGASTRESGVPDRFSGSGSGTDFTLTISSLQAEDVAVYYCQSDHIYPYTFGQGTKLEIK
0.00016

Dear colleague, I am looking for the recorded koff of the following binder: KM4097 humanized antibody HV5LV0 (antibody, V domains shown, Expressed from pKANTEX93 (human constant regions) in FUT8 knockout CHO cells; no fucose attached) VH: QVQLVQSGAEVKKPGASVKVSCKASGYTFTIYWLGWVKQAPGQGLEWIGNIFPGSAYINYNEKFKGKATITADTSTSTAYMELSSLRSEDTAVYFCAREGSNSGYWGQGTLVTVSS VL: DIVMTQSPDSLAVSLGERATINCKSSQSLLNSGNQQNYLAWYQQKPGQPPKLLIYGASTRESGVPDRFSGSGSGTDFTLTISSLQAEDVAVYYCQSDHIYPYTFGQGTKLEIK
0.00019

Dear colleague, I am looking for the recorded koff of the following binder: anti-Trop-2 human chimeric antibody KM4591 (antibody, human IgG1, V domains shown, Same polypeptides as KM4590 (human IgG1, kappa), made in FUT8 knockout CHO/DG44 cells, fucose content 0%) VH: QVQLQQSGPELVRPGTSVRISCKASGYTFTIYWLGWVKQRPGHGLEWIGNIFPGSAYINYNEKFKGKATLTADTSSSTAYMQLSSLTSEDSAVYFCAREGSNSGYWGQGTTLTVSS VL: DIVMTQSPSSLSVSAGEKVTMTCKSSQSLLNSGNQQNYLAWYQQKPGQPPKLLIYGASTRESGVPDRFTGSGSGTDFTLTINSVQAEDLAVYYCQSDHIYPYTFGGGTKLEIK
0.000113

Dear colleague, I am looking for the recorded koff of the following binder: KM4097 humanized antibody HV10LV4 (antibody, V domains shown, Expressed from pKANTEX93 (human constant regions) in FUT8 knockout CHO cells; no fucose attached) VH: QVQLVQSGPEVVKPGASVKISCKASGYTFTIYWLGWVKQAPGQGLEWIGNIFPGSAYINYNEKFKGKATLTADTSTSTAYMELSSLRSEDTAVYFCAREGSNSGYWGQGTLLTVSS VL: DIVMTQSPDSLAVSAGERVTMNCKSSQSLLNSGNQQNYLAWYQQKPGQPPKLLIYGASTRESGVPDRFSGSGSGTDFTLTISSVQAEDVAVYYCQSDHIYPYTFGQGTKLEIK
0.000116
